molecular target: CYP2E1 (Homo sapiens, UniProt P05181)

Compound: O[C@@H](CS)[C@@H](O)CS (racemic)
Readout Units: mM
Kd: 10.4
